- experiment: Pharmacokinetics after intravenous and oral administration in rats
- Assay type: in vivo
- run-conditions: rat, plasma, iv dosing, dose 1 mg/kg (Ex. 9: 0.6, Ex. 18: 0.5, Ex. 50: 0.96 mg/kg), read-out: Vss
In this section we review reported Vd values for a set of molecules.
Give your result in L/kg as a bare value.

Look over these answered cases.
molecule	Vd, L/kg
CC(O)Cn1cnc2cc(Nc3ncc(Cl)c(NC4CCN(c5ccc(C#N)cn5)CC4)n3)cnc21 (stereo not drawn) [Example 52]	0.96
Cn1cnc2cc(Nc3ncc(Cl)c(NC4CCN(c5ccc(C#N)nn5)CC4)n3)ccc21 [Example 50]	1.17

As a next step, examine the molecule that follows.
Quick one: Vd of N#Cc1ccc(N2CCC(Nc3nc(Nc4ccn5ccnc5c4)ncc3Cl)CC2)nn1 [Example 4] ?
1.05

====

- experiment: Pharmacokinetics after intravenous and oral administration in rats
- Assay type: in vivo
- run-conditions: rat, plasma, iv dosing, dose 1 mg/kg (Ex. 9: 0.6, Ex. 18: 0.5, Ex. 50: 0.96 mg/kg)
- Procedure: The LC/MS/MS system used in the analysis consists of an Agilent 1200 Series vacuum degasser, binary pump, well-plate autosampler, thermostatted column compartment, the Agilent G6430 Triple Quadrupole Mass Spectrometer with an electrosprayionization (ESI) source. Quantitative analysis was carried out using MRM mode. The parameters for MRM transitions are in the Table A. […] The compounds disclosed herein are assessed in pharmacokinetic studies in mice, rats, dogs or monkeys. […]
endpoint-name: AUC(0-t) (ng·h/mL)
Give your result in ng·h/mL as a bare value.

molecule	units-symbol	AUC(0-t)
N#Cc1ccc(N2CCC(Nc3nc(Nc4ccn5cc(C(F)F)nc5c4)ncc3Cl)CC2)nn1 [Example 28]	ng·h/mL	1220
CN(C)C(=O)c1nc2cc(Nc3ncc(Cl)c(NC4CCN(c5ccc(C#N)cn5)CC4)n3)ccn2n1 [Example 83]	ng·h/mL	1830

Quick one: AUC(0-t) of Cc1nc2cc(Nc3ncc(Cl)c(NC4CCN(c5ccc(C#N)nn5)CC4)n3)ccc2n1C [Example 49] ?
1540

Quick one: AUC(0-t) of CC(C)(O)c1nc2cc(Nc3ncc(Cl)c(NC4CCN(c5ccc(C#N)nn5)CC4F)n3)ccn2n1 (stereo not shown) [Example 88] ?
1460

====

- experiment: Pharmacokinetics after intravenous and oral administration in rats
- Type: in vivo
- run-conditions: rat, plasma, oral (generally 5 or 10 mg/kg) versus iv dosing, read-out: F (oral bioavailability)
endpoint-name: bioavailability
Number first, unit second: that is the form wanted.

Quick one: bioavailability of CC(O)Cn1ccc2cc(Nc3ncc(Cl)c(NC4CCN(c5ccc(C#N)cn5)CC4)n3)cnc21 (stereo not drawn) [Example 54] ?
36.6%

Quick one: bioavailability of Cn1cnc2cc(Nc3ncc(Cl)c(NC4CCN(c5ccc(C#N)cn5)CC4)n3)ccc21 [Example 46] ?
126%

Quick one: bioavailability of N#Cc1ccc(N2CCC(Nc3nc(Nc4ccn5cc(C(F)F)nc5c4)ncc3Cl)CC2)nn1 [Example 28] ?
56.1%

====

- experiment: Compound stability in human liver microsomes
- Format: in vitro ADME
- run-conditions: human liver microsomes 0.5 mg protein/mL, compound 5 μM, NADPH 1.0 mM, pH 7.4, 37° C.; read-out: Human T1/2
# if measured half-life at 5 μM < 40 min: criterion met  # else: criterion not met

# count of solved cases: 3
compound	assigned-category
CC(C)(O)c1nc2cc(Nc3ncc(Cl)c(NC4CCN(c5ccc(C#N)nn5)CC4F)n3)ccn2n1 (centres unmarked)	criterion not met
Cc1nc2ccc(Nc3ncc(Cl)c(NC4CCN(c5ccc(C#N)nn5)CC4)n3)cn2n1	criterion not met
Cc1cn2c(C)cnc2cc1Nc1ncc(Cl)c(NC2CCN(c3ccc(C#N)nn3)CC2)n1	criterion not met

Regarding Cc1nc2cc(Nc3ncc(Cl)c(NC4CCN(c5ccc(C#N)cn5)CC4)n3)ccc2n1C , kindly confirm whether its half-life at 5 μM is beneath 40 min.
criterion met

Regarding Cn1cnc2cc(Nc3ncc(Cl)c(NC4CCN(c5ccc(C#N)nn5)CC4)n3)ccc21 , kindly confirm whether its half-life at 5 μM is beneath 40 min.
criterion not met

Regarding CCC1CN(c2ccc(C#N)nn2)CCC1Nc1nc(Nc2ccn3c(C4CC4)cnc3c2)ncc1Cl (centres unmarked) , kindly confirm whether its half-life at 5 μM is beneath 40 min.
criterion met

Regarding CCCn1nnc2cc(Nc3ncc(Cl)c(NC4CCN(c5ccc(C#N)nn5)CC4)n3)ccc21 , kindly confirm whether its half-life at 5 μM is beneath 40 min.
criterion met
